// data source = the supplement of paper PMC6555819

System: LXRa:RXRa (NR concentration 270 nM, RXRa partner concentration 90 nM)
protocol description: PBM binding z-score (relative to random genomic background probes); higher = stronger binding; sequences stand for … in GC…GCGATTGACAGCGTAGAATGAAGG
Attribute: PBM binding z-score
Form rule: numeric answer, no unit written next to it.

Guide cases for PBM binding z-score, answers given:
sequence chain | value reported
CGTCCAAGGTCATAGGGGGTCAGTGAAGACAGAT | 7.05
CTATGTAGGTTAAGGGAGTCATTCAGTTTGAAAG | 0.682
CGAACTAGGTCGAGGACAGTGAATCTCCGCACGC | -0.0944
CCTTAAGGGTCACGAGGTTATAGCACGACGAGCG | 5.92
CCTGCTAGGTCATGGTCAGCGAATCTACAGTATG | 2.19
CGTCCAAGGTCGAAGGTCAGTGAAGAGATGACGG | 3.14
AGAATGGGGTTATACGTAGATCAGGGAAGAAAGT | 2.95
CTATGTGGGTTAAGGGGGTCATTCAGTTTGAAAG | 5.47

Okay, now this sequence:
Prompt: Name the recorded PBM binding z-score of the sequence listed here: CCTGCTAGGTCAAAGGTCAGCTAAAGCAGCTCGC
Response: 6.38
